# experiment: NCI Yeast Anticancer Drug Screen. Data for the cln2 rad14 strain (AID 165);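 note: 0% = growth equal to vehicle treated cultures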
# condition_context: S. cerevisiae cln2 rad14 strain, at 50.0 µM, active compounds read high
This is part of a sample that, as a whole, favours compounds with a hit. Of some 79,000 tested, about 15% had one in any assay.
Exercise: for every item that follows, state its recorded growth inhibition.
Please respond with the number in % and leave the unit unwritten.

// query growth inhibition value for entry Brc1ccccn1 -15.1

Please look up its growth inhibition: CCOc1cc[n+](C)c2ccc(C)cc12 16.3

Can you look up the measured growth inhibition of CC(O)C(c1ccc(N(C)C)cc1)c1ccc(N(C)C)cc1 (configuration not stated) for me? -14.6

// growth inhibition lookup, key: CCCCCC/C=C\CCCCCCCCCC1=CC(=O)C=C(OC)C1=O -83.8

What does the data say about its growth inhibition? Entry: Cc1cc([N+](=O)[O-])cnc1Cl -15.9

Please look up its growth inhibition: CCC1=CCN(c2cc(C)ccn2)OC1c1ccc(OC)cc1 (configuration not stated) 14.3

Query (molecule): CN1CCOC(=O)C(C#N)=C1c1ccccc1 ; field requested: growth inhibition -17

###

# experiment: NCI Yeast Anticancer Drug Screen. Data for the cln2 rad14 strain (AID 165);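 note: 0% = growth equal to vehicle treated cultures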
# condition_context: S. cerevisiae cln2 rad14 strain, at 50.0 µM, active compounds read high
This is part of a sample that, as a whole, favours compounds with a hit. Of some 79,000 tested, about 15% had one in any assay.
Assignment: determine reported growth inhibition for the given compounds.
Give the quantity in %, number only.

Which growth inhibition value is on record for Cc1ccc(-c2cc(-c3ccco3)c(C#N)c(=O)[nH]2)cc1 ? 16.4

Param item = O=C1OCC/C1=C\c1cccc2ccccc12 ; retrieve measured growth inhibition. 12.5

Quick check: growth inhibition of CC(=O)NC1C(OCc2ccccc2)OC(COC(=O)CCCCCCCCCCNc2ccc([N+](=O)[O-])c3[nH]c4ccccc4c(=O)c23)C(O)C1OC(C)C(=O)NC(C)C(=O)NC(CCC(N)=O)C(=O)OCc1ccccc1 (stereo not given) ? 14.4

Suppose we examine the compound CC/C(CC(=O)CCC(=O)Nc1ccccc1[N+](=O)[O-])=N/NC(=O)C[n+]1ccccc1 ; what growth inhibition value has been reported? 16.4

Can you share its growth inhibition? I mean this compound: O=C(O)Cc1c(-c2ccc([N+](=O)[O-])cc2)c(=O)oc2cc(O)ccc12 20.1

Quick check: growth inhibition of NC(CSS(=O)(=O)CC(N)C(=O)O)C(=O)O (stereo not given) ? -20.7

Item CCCc1c(C(=O)OCC)[nH]c(-c2ccc(-c3[nH]c(C(=O)OCC)c(CCC)c3C(=O)OCC)s2)c1C(=O)OCC has what recorded growth inhibition? 3

Suppose we examine the compound Cc1cc(N=Nc2c(O)c3ccccc3[nH]c2=O)ccc1N=Nc1ccc(C(=O)O)cc1 ; what growth inhibition value has been reported? 1.1

growth inhibition lookup needed for CC(=O)c1cccc(NC(=O)N2CCN(c3ccccc3)CC2)c1 , thanks. 1.25

growth inhibition for O=C(O)C1CC1Br (stereo not given) ? -14.4

For the compound CCN(CC)CCOc1ccc(N2Cc3cc(OC)c(OC)cc3C2=O)cc1 , what growth inhibition is on record? 13.5

# lookup: growth inhibition of S=c1o[nH]c(-c2ccccc2)c1C=Nc1ccccc1 26.6

Given the compound Cc1sc2ccnc(C)c2c1S(=O)(=O)O , what is its reported growth inhibition? -3.5

Quick one: growth inhibition of NNc1ccc(S(=O)(=O)C(F)F)cc1 ? 41

Which growth inhibition is listed for BrCCCOc1ccccc1 ? -2.9

For Cc1cccn2nnnc12 , what is its reported growth inhibition? 9

Dear colleague, I am looking for the recorded growth inhibition of the following compound: CCOC(=O)CN(c1c(C)cc(C)c(N(CC(=O)OCC)S(=O)(=O)c2ccccc2)c1C)S(=O)(=O)c1ccccc1 -9.2

Form field: reported growth inhibition of CC1CC[N-]C(N)N1.CC1CC[N-]C(N)N1.[Cl][Pd][Cl] (stereo not given) -34.4

State the recorded growth inhibition for this entry: O=c1[nH]nc(-c2ccc(Cl)cc2)c2cc(Cl)c(Cl)cc12 -57.9

Recorded growth inhibition of O=C(O)c1ccc(N2C(=O)c3ccccc3C2=O)cc1 , please. -10.1

Looking for the measured growth inhibition of O=C(Nc1ccc(Cl)c(Cl)c1)C(=O)Nn1c(=S)[nH]c2ccccc2c1=O , can you help? -1.5

// lookup growth inhibition for CCCCCCC1OCC(CC)(CC)CO1 -26.5

For the compound shown here, COc1ccc(C(=O)C(C(=O)C(=O)Nc2ccc(Cl)c(Cl)c2)c2ccc(OC)cc2)cc1 (stereo not given) , give the reported growth inhibition. 38.1

Which growth inhibition value belongs to CCOC(=O)C1Oc2ccccc2OC1C (stereo not given) ? 12.9

Find the recorded growth inhibition belonging to Cc1ccsc1/C=N/Nc1cc(C)c2ccccc2n1 and report it. 35.8

Data request, read-out growth inhibition, for O=NN(CCCl)C(=O)NC1CCC(C(=O)O)CC1 (stereo not given) -7.8

Form field: reported growth inhibition of Fc1ccc2nncc(SCc3ccc(Cl)cc3)c2c1 -22.4

Looking for the measured growth inhibition of CCCCCC(/C=C/[C@@H]1[C@H]2CC(=O)O[C@H]2C[C@H]1N1CCOCC1)OC1CCCO1 (stereo not given in full) , can you help? -35.1

Return reported growth inhibition; argument: N/C(=N\OC(=O)NC(Cl)=C(Cl)Cl)c1ccc(Cl)cc1 16.7

GET /values?readout=growth inhibition&item= CCN(CC)CCN(C(=Nc1ccccc1)N1CCCCC1)c1ccccc1 19

Quick one: growth inhibition of CCc1cc2c(cc1C(=O)/C=C\c1cccc3ccccc13)C(C)(C)CCC2(C)C ? -20.1

Dear colleague, I am looking for the recorded growth inhibition of the following compound: O=S(=O)(Cl)C1c2ccccc2-c2ccccc21 15.7

Look up growth inhibition for this compound: CCCCN(CCCC)CCCNC(=S)Nc1ccccc1 -7.25

Consider the compound N#CC(CCc1ccc([N+](=O)[O-])cc1)(CCc1ccc([N+](=O)[O-])cc1)C(N)=O and give its measured growth inhibition. -14.2

Would you mind telling me what growth inhibition value was observed for CC(C)(C(=O)O)c1ccccc1C(=O)c1ccccc1 ? 49.3

Bench note: what growth inhibition did CC1(C)C(CC(=O)O)CC1C(=O)O (stereo not given) show? 11.2

Recorded growth inhibition for O=C(c1ccccc1)C1C(c2ccccc2)N1C(=O)c1ccccc1 (stereo not given) , please? -1.3

Consider the compound shown here: COC(=O)C(=O)c1cc(C)n(C)c(=O)c1CN1C(=O)c2ccccc2C1=O What is its recorded growth inhibition? -18.9

Requested read-out: growth inhibition. Entry: COC(=O)c1nc(NN)[nH]c(=O)c1C 3.35

Can you share its growth inhibition? I mean this compound: C1=NCCCCCCCN=Cc2ccccc2NCCNc2ccccc21 32.4

Endpoint output: growth inhibition of Cc1cc(S(=O)(=O)Nc2n[nH]c(Nc3ccccc3)n2)c(SCC(=O)O)cc1Cl . Value? -0.25

So what does the record say about growth inhibition for CCOC(=O)CC(=O)C1CCC2C3CC=C4CC(O)CCC4(C)C3CCC12C (stereo not given) ? 25.9

Item O=c1c(-c2ccc3c(c2)OCO3)coc2cc(O)ccc12 has what recorded growth inhibition? 13.7

I'd like to know its growth inhibition. The compound in question is COc1cc2c3c(c1)[nH]c(=S)n3C(=O)CS2 -16.7

Recorded growth inhibition of CCc1cccc(C)c1NC(=S)NC(=O)c1ccccc1C(=O)NC(=S)Nc1c(C)cccc1CC , please. 20.9
